Below are pKi values measured for Muscarinic acetylcholine receptor M2 (Homo sapiens, UniProt P08172).
pKi: −log10 of the molar value.
reported_metric: pKi

structure	pKi
O=C(CCCCCNC(=O)COc1ccc(/C=C/C2=[N+]3C(=Cc4ccc(-c5cccs5)n4[B-]3(F)F)C=C2)cc1)NCCNC(=O)CCc1cn(CCCCC2CCN(CC(=O)N3c4ccccc4NC(=O)c4ccccc43)CC2)cn1	9.15
Cc1cc(/C=C/C=C/c2ccc(N(C)C)cc2)cc(C)[n+]1CCNC(=O)CCc1cn(CCCCC2CCN(CC(=O)N3c4ccccc4NC(=O)c4ccccc43)CC2)cn1	9.05

[A] Cc1cc(/C=C/c2cc3c4c(c2)CCCN4CCC3)cc(C)[n+]1CCN1CCN(CCCCC2CCN(CC(=O)N3c4ccccc4NC(=O)c4ccccc43)CC2)CC1
[B] CN(C)c1ccc2c(-c3ccc(C(=O)NCCNC(=O)CCc4cn(CCCCC5CCN(CC(=O)N6c7ccccc7NC(=O)c7ccccc76)CC5)cn4)cc3C(=O)[O-])c3ccc(=[N+](C)C)cc-3oc2c1
Challenge: Select one. Lower pKi: A or B Select an item and report its label.
Response given: B

====

- target_or_system: Muscarinic acetylcholine receptors; M2 & M3 (Homo sapiens) (UniProt P20309+P08172)
- protocol_notes: Selectivity ratio of Ki for displacement of [3H]-NMS from human muscarinic M3 receptor to Ki for displacement of [3H]-NMS from human muscarinic M2 receptor
- Type: protein assay
reported_metric: Ratio Ki

Answered examples (2):
structure	target_or_system	experimental_value
Cc1cc(/C=C/c2cc3c4c(c2)CCCN4CCC3)cc(C)[n+]1CCNC(=O)CCc1cn(CCCCC2CCN(CC(=O)N3c4ccccc4NC(=O)c4ccccc43)CC2)cn1	Muscarinic acetylcholine receptors; M2 & M3 (Homo sapiens) (UniProt P20309+P08172)	51.3
Cc1cc(/C=C/C=C/c2ccc(N(C)C)cc2)cc(C)[n+]1CCN1CCN(CCCCC2CCN(CC(=O)N3c4ccccc4NC(=O)c4ccccc43)CC2)CC1	Muscarinic acetylcholine receptors; M2 & M3 (Homo sapiens) (UniProt P20309+P08172)	50.1

[A] Cc1cc(/C=C/c2cc3c4c(c2)CCCN4CCC3)cc(C)[n+]1CCN1CCN(CCCCC2CCN(CC(=O)N3c4ccccc4NC(=O)c4ccccc43)CC2)CC1
[B] CC1(C)C(/C=C/C=C/C=C2/N(CCCCCC(=O)NCCNC(=O)CCc3cn(CCCCC4CCN(CC(=O)N5c6ccccc6NC(=O)c6ccccc65)CC4)cn3)c3cccc(S(=O)(=O)O)c3C2(C)C)=[N+](CCCCS(=O)(=O)[O-])c2ccccc21
Challenge: Select one. Lower Ratio Ki: A or B Select an item and report its label.
Response given: A

[P] Cc1cc(/C=C/C=C/c2ccc(N(C)C)cc2)cc(C)[n+]1CCNC(=O)CCc1cn(CCCCC2CCN(CC(=O)N3c4ccccc4NC(=O)c4ccccc43)CC2)cn1
[Q] O=C(CCCCCNC(=O)COc1ccc(/C=C/C2=[N+]3C(=Cc4ccc(-c5cccs5)n4[B-]3(F)F)C=C2)cc1)NCCNC(=O)CCc1cn(CCCCC2CCN(CC(=O)N3c4ccccc4NC(=O)c4ccccc43)CC2)cn1
Challenge: Select one. Lower Ratio Ki: P or Q Select an item and report its label.
Response given: Q
(Q: 53.7, P: 93.3)

[a] CN(C)c1ccc2c(-c3ccc(C(=O)NCCNC(=O)CCc4cn(CCCCC5CCN(CC(=O)N6c7ccccc7NC(=O)c7ccccc76)CC5)cn4)cc3C(=O)[O-])c3ccc(=[N+](C)C)cc-3oc2c1
[b] CN(C)c1ccc2c(-c3ccc(C(=O)NCCN4CCN(CCCCC5CCN(CC(=O)N6c7ccccc7NC(=O)c7ccccc76)CC5)CC4)cc3C(=O)[O-])c3ccc(=[N+](C)C)cc-3oc2c1
Challenge: Which value of Ratio Ki is greater, the one for a or the one for b ? Select an item and report its label.
Response given: b
(b: 339, a: 72.4)

====

- target_or_system: Muscarinic acetylcholine receptors; M1 & M2 (Homo sapiens) (UniProt P11229+P08172)
- protocol_notes: Selectivity ratio of Ki for displacement of [3H]-NMS from human muscarinic M1 receptor to Ki for displacement of [3H]-NMS from human muscarinic M2 receptor
- Format: protein assay
reported_metric: Ratio Ki

Answered examples (3):
structure	target_or_system	reported_metric	experimental_value
Cc1cc(/C=C/C=C/c2ccc(N(C)C)cc2)cc(C)[n+]1CCN1CCN(CCCCC2CCN(CC(=O)N3c4ccccc4NC(=O)c4ccccc43)CC2)CC1	Muscarinic acetylcholine receptors; M1 & M2 (Homo sapiens) (UniProt P11229+P08172)	Ratio Ki	4
Cc1cc(/C=C/c2cc3c4c(c2)CCCN4CCC3)cc(C)[n+]1CCNC(=O)CCc1cn(CCCCC2CCN(CC(=O)N3c4ccccc4NC(=O)c4ccccc43)CC2)cn1	Muscarinic acetylcholine receptors; M1 & M2 (Homo sapiens) (UniProt P11229+P08172)	Ratio Ki	5.2
CC1(C)C(/C=C/C=C/C=C2/N(CCCCCC(=O)NCCNC(=O)CCc3cn(CCCCC4CCN(CC(=O)N5c6ccccc6NC(=O)c6ccccc65)CC4)cn3)c3cccc(S(=O)(=O)O)c3C2(C)C)=[N+](CCCCS(=O)(=O)[O-])c2ccccc21	Muscarinic acetylcholine receptors; M1 & M2 (Homo sapiens) (UniProt P11229+P08172)	Ratio Ki	6.3

[P] Cc1cc(/C=C/C=C/c2ccc(N(C)C)cc2)cc(C)[n+]1CCNC(=O)CCc1cn(CCCCC2CCN(CC(=O)N3c4ccccc4NC(=O)c4ccccc43)CC2)cn1
[Q] CN(C)c1ccc2c(-c3ccc(C(=O)NCCN4CCN(CCCCC5CCN(CC(=O)N6c7ccccc7NC(=O)c7ccccc76)CC5)CC4)cc3C(=O)[O-])c3ccc(=[N+](C)C)cc-3oc2c1
Challenge: Select one. Lower Ratio Ki: P or Q Select an item and report its label.
Response given: P
(P: 5.4, Q: 10.7)

====

- target_or_system: Muscarinic acetylcholine receptor M2 and M4 (Homo sapiens) (UniProt P08173+P08172)
- protocol_notes: Selectivity ratio of Ki for displacement of [3H]-NMS from human muscarinic M4 receptor to Ki for displacement of [3H]-NMS from human muscarinic M2 receptor
- Format: protein assay
reported_metric: Ratio Ki

Answered examples (3):
structure	target_or_system	Ratio Ki
CC1(C)C(/C=C/C=C/C=C2/N(CCCCCC(=O)NCCNC(=O)CCc3cn(CCCCC4CCN(CC(=O)N5c6ccccc6NC(=O)c6ccccc65)CC4)cn3)c3cccc(S(=O)(=O)O)c3C2(C)C)=[N+](CCCCS(=O)(=O)[O-])c2ccccc21	Muscarinic acetylcholine receptor M2 and M4 (Homo sapiens) (UniProt P08173+P08172)	39.8
Cc1cc(/C=C/C=C/c2ccc(N(C)C)cc2)cc(C)[n+]1CCN1CCN(CCCCC2CCN(CC(=O)N3c4ccccc4NC(=O)c4ccccc43)CC2)CC1	Muscarinic acetylcholine receptor M2 and M4 (Homo sapiens) (UniProt P08173+P08172)	3.2
Cc1cc(/C=C/C=C/c2ccc(N(C)C)cc2)cc(C)[n+]1CCNC(=O)CCc1cn(CCCCC2CCN(CC(=O)N3c4ccccc4NC(=O)c4ccccc43)CC2)cn1	Muscarinic acetylcholine receptor M2 and M4 (Homo sapiens) (UniProt P08173+P08172)	4.7

[a] Cc1cc(/C=C/c2cc3c4c(c2)CCCN4CCC3)cc(C)[n+]1CCN1CCN(CCCCC2CCN(CC(=O)N3c4ccccc4NC(=O)c4ccccc43)CC2)CC1
[b] Cc1cc(/C=C/c2cc3c4c(c2)CCCN4CCC3)cc(C)[n+]1CCNC(=O)CCc1cn(CCCCC2CCN(CC(=O)N3c4ccccc4NC(=O)c4ccccc43)CC2)cn1
Challenge: Which value of Ratio Ki is greater, the one for a or the one for b ? Select an item and report its label.
Response given: a
(a: 2.8, b: 1.9)

====

- target_or_system: Muscarinic acetylcholine receptor M2 and M4 (Homo sapiens) (UniProt P08173+P08172)
- protocol_notes: Selectivity ratio of Ki for displacement of [3H]-NMS from human muscarinic M4 receptor to Ki for displacement of [3H]-NMS from human muscarinic M2 receptor
- Format: protein assay
reported_metric: Ratio Ki

[P] CN(C)c1ccc2c(-c3ccc(C(=O)NCCN4CCN(CCCCC5CCN(CC(=O)N6c7ccccc7NC(=O)c7ccccc76)CC5)CC4)cc3C(=O)[O-])c3ccc(=[N+](C)C)cc-3oc2c1
[Q] O=C(CCCCCNC(=O)COc1ccc(/C=C/C2=[N+]3C(=Cc4ccc(-c5cccs5)n4[B-]3(F)F)C=C2)cc1)NCCNC(=O)CCc1cn(CCCCC2CCN(CC(=O)N3c4ccccc4NC(=O)c4ccccc43)CC2)cn1
[R] CN(C)c1ccc2c(-c3ccc(C(=O)NCCNC(=O)CCc4cn(CCCCC5CCN(CC(=O)N6c7ccccc7NC(=O)c7ccccc76)CC5)cn4)cc3C(=O)[O-])c3ccc(=[N+](C)C)cc-3oc2c1
Challenge: // rank the listed compounds by Ratio Ki, lowest value first Field: ranking. Enter the labels in the order requested.
Response given: Q, R, P
(Q: 0.6, R: 2, P: 4.1)

Ref: ChEMBL document CHEMBL6109171
